Assay: Ulcerogenic activity / gastric tolerability, UD50 in fasted rats
Format: in vivo, rat
Settings: rat, in vivo, po; fasted rats, per os, 48 h; read-out: Gastric tolerability UD50 fasted 48 h
Source text: The UD50 has been also calculated according to the aforesaid method of Litchfield and Wilcoxon.
observed-property: TD50 at 48 h (mg/kg)
Report only the number, with the unit mg/kg understood.

Entry under test: COc1ccc2c(c1)c(CC(=O)O)c(C)n2C(=O)c1ccc(Cl)cc1 [Indomethacin, reference compound] . Its TD50 at 48 h was 3.45

====

assay: Ulcerogenic activity / gastric tolerability, UD50 in fasted rats; format: in vivo, rat; conditions: rat, in vivo, po, Gastric tolerability UD50 fasted 48 h
observed-property: TD50 at 48 h (mg/kg)
Report only the number, with the unit mg/kg understood.

Entry under test: COc1ccc2c(c1)c(CC(=O)OCc1cnc(C)c(O)c1CO)c(C)n2C(=O)c1ccc(Cl)cc1 [compound ex. 2] . Its TD50 at 48 h was 285

====

Assay: Ulcerogenic activity / gastric tolerability, UD50 in fasted rats
Type: in vivo, rat
Settings: rat, in vivo, po, UD50 48 h, Randall-Selitto 3 h; read-out: Tolerability index UD50 (48 h)/ED50 (Randall-Selitto 3 h)
From the text: The UD50 has been also calculated according to the aforesaid method of Litchfield and Wilcoxon.
observed-property: selectivity ratio

>  <compound>
COc1ccc2c(c1)c(CC(=O)OCc1cnc(C)c(O)c1CO)c(C)n2C(=O)c1ccc(Cl)cc1

>  <selectivity ratio>
84.6

$$$$

// next item, selectivity ratio requested
Entry under test: COc1ccc2c(c1)c(CC(=O)O)c(C)n2C(=O)c1ccc(Cl)cc1 [Indomethacin, reference compound] . Its selectivity ratio was 2.59

Hey, just so you know, these numbers are from patent US4412996A.
